Kindly supply the reported IC50 values for the records listed here.
Experimental System: human Nav1.5 (Homo sapiens (Human))
Sequence (Q14524 whole entry): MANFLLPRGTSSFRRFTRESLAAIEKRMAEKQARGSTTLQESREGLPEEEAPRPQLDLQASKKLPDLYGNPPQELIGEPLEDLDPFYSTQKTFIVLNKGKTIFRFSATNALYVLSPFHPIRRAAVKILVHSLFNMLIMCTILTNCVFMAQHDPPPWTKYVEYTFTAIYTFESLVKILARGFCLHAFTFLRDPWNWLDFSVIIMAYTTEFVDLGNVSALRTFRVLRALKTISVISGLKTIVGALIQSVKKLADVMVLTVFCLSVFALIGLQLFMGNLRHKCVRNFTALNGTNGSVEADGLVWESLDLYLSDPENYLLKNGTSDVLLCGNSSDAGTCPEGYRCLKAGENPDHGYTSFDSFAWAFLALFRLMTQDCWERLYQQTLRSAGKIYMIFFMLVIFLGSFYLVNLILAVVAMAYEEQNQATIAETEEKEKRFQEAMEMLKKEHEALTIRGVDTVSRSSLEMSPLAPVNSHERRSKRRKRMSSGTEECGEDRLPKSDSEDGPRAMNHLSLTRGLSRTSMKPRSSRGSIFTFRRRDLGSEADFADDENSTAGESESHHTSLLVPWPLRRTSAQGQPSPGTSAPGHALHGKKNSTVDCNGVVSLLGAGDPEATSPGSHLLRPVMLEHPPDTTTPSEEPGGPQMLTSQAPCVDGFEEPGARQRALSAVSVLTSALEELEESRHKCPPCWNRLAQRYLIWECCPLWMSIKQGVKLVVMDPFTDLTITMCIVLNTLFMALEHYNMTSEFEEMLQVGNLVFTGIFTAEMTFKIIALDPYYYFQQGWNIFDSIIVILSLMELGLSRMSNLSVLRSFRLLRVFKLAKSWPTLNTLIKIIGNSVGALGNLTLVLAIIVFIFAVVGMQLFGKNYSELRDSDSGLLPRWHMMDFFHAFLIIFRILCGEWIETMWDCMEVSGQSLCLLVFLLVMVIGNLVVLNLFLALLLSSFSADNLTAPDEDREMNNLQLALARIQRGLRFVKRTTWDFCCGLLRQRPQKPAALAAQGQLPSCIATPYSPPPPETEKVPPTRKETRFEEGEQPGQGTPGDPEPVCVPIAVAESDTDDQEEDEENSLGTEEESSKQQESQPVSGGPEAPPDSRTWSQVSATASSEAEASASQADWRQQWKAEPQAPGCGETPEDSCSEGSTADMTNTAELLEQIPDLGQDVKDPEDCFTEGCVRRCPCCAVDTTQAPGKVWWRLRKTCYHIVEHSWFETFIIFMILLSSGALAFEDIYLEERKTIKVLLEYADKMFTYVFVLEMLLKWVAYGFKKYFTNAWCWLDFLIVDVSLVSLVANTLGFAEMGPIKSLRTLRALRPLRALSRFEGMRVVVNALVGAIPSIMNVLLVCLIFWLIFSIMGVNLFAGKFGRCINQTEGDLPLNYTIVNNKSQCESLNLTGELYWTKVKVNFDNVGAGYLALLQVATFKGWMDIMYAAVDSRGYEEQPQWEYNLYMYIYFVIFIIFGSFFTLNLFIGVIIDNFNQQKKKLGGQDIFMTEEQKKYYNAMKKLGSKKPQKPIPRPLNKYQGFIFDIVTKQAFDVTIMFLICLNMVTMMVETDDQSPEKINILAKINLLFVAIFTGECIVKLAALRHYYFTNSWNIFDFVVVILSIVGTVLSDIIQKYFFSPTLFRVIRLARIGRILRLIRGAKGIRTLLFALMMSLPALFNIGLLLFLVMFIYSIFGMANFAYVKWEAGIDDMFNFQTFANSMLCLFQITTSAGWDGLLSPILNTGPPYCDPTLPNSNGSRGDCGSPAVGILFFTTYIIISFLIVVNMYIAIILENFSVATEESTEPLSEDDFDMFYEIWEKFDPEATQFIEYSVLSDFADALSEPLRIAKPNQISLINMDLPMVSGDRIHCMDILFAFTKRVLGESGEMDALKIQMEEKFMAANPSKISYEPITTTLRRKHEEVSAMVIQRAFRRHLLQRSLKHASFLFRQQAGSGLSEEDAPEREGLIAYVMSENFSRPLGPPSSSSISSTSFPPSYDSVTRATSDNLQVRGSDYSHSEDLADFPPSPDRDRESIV
Test: Qpatch automated patch-clamp, peak Nav1.5 current inhibition, 5-Hz AF-like assay (holding potential -85 mV)
Assay type: cell-based
Conditions Used: CHO-K1 cells stably expressing human Nav1.5, Table 6, Examples 63-90, read-out: Nav1.5 IC50 (5 Hz, AF Rate)
Answers are plain numbers, in µM.

Okay, here is my list. What is IC50 for each of these?
1. C[C@](O)(CS(N)(=O)=O)c1cccc(-c2nnn(Cc3cc(OC(F)F)ccc3F)n2)n1
2. Cc1cccc(Cn2nnc(-c3cccc([C@@](C)(O)CS(N)(=O)=O)n3)n2)c1C
3. C[C@](O)(CS(N)(=O)=O)c1cccc(-c2nnn(Cc3c(F)cccc3Br)n2)n1
4. Cc1ccc(F)c(Cn2nnc(-c3cccc([C@@](C)(O)CS(N)(=O)=O)n3)n2)c1Cl

Response:
1. 14
2. 11
3. 8.1
4. 3.8

====

Experimental System: human Nav1.5 (Homo sapiens (Human))
Test: Qpatch automated patch-clamp, peak Nav1.5 current inhibition, 5-Hz AF-like assay (holding potential -85 mV)
Type: cell-based
Conditions Used: CHO-K1 cells stably expressing human Nav1.5, Table 6, Examples 63-90, read-out: Nav1.5 IC50 (5 Hz, AF Rate)
Description: Electrophysiology was used to measure the ionic currents in isolated living cells using automated patch-clamp recording, performed using an automated patch-clamp machine called Qpatch (Sophion Bioscience). Two different assay conditions were used to identify compounds with atrial-selective potential. The 5-Hz AF-like assay has more depolarized holding potential at −85 mV to mimic atrial resting membrane potential (RMP) and was used to identify compounds of strong rate-dependence. […]
Kindly supply the reported IC50 values for the records listed here.

Sample records with IC50:
C[C@](O)(CS(N)(=O)=O)c1cccc(-c2nnn(Cc3cc(OC(F)(F)F)ccc3Br)n2)n1 :: 6.3 µM
C[C@](O)(CS(N)(=O)=O)c1cccc(-c2nnn(Cc3c(C(F)(F)F)ccc(Cl)c3Cl)n2)n1 :: 9.3 µM
C[C@](O)(CS(N)(=O)=O)c1cccc(-c2nnn(Cc3c(F)ccc(Cl)c3F)n2)n1 :: 19 µM

Okay, here is my list. What is IC50 for each of these?
1. C[C@](O)(CS(N)(=O)=O)c1cccc(-c2nnn(Cc3c(Cl)cccc3Cl)n2)n1
2. Cc1ccc(C(C)C)cc1Cn1nnc(-c2cccc([C@@](C)(O)CS(N)(=O)=O)n2)n1

Response:
5.2 µM
7.3 µM

Okay, here is my list. What is IC50 for each of these?
1. C[C@](O)(CS(N)(=O)=O)c1cccc(-c2nnn(Cc3cc(Cl)ccc3Cl)n2)n1
2. C[C@](O)(CS(N)(=O)=O)c1cccc(-c2nnn(Cc3cc(Cl)cc(OC(F)(F)F)c3)n2)n1
3. C[C@](O)(CS(N)(=O)=O)c1cccc(-c2nnn(Cc3ccc(Br)cc3F)n2)n1
4. C[C@](O)(CS(N)(=O)=O)c1cccc(-c2nnn(Cc3cccc(Cl)c3Cl)n2)n1
5. C[C@](O)(CS(N)(=O)=O)c1cccc(-c2nnn(Cc3cccc(OC(F)(F)F)c3)n2)n1
6. C[C@](O)(CS(N)(=O)=O)c1cccc(-c2nnn(Cc3cc(OC(F)(F)F)ccc3Cl)n2)n1

Response:
1. 10 µM
2. 28 µM
3. 17 µM
4. 22 µM
5. 7.3 µM
6. 13 µM

Okay, here is my list. What is IC50 for each of these?
1. C[C@](O)(CS(N)(=O)=O)c1cccc(-c2nnn(Cc3c(F)cccc3C(F)(F)F)n2)n1
2. C[C@](O)(CS(N)(=O)=O)c1cccc(-c2nnn(Cc3cc(C(F)(F)F)ccc3Cl)n2)n1
3. C[C@](O)(CS(N)(=O)=O)c1cccc(-c2nnn(Cc3cc(C(F)(F)F)cc(C(F)(F)F)c3)n2)n1
4. COc1ccc(F)c(Cn2nnc(-c3cccc([C@@](C)(O)CS(N)(=O)=O)n3)n2)c1

Response:
1: 13 µM; 2: 21 µM; 3: 18 µM; 4: 17 µM
